Assign z-score to each entry below.
molecular target: NADPH oxidase 2 (Homo sapiens) (UniProt P04839); test: NOX2-dependent H2O2 signal modulators, primary screen, NOX inhibitor project, cell-based, HEK293-NOX2, PMA-stimulated, Amplex Red fluorescence (AID 1159); details: 45 min, higher = more signal, called active from +8 up or from −8 down; also: test concentration not given here
Sequence (P04839 whole entry, looked up): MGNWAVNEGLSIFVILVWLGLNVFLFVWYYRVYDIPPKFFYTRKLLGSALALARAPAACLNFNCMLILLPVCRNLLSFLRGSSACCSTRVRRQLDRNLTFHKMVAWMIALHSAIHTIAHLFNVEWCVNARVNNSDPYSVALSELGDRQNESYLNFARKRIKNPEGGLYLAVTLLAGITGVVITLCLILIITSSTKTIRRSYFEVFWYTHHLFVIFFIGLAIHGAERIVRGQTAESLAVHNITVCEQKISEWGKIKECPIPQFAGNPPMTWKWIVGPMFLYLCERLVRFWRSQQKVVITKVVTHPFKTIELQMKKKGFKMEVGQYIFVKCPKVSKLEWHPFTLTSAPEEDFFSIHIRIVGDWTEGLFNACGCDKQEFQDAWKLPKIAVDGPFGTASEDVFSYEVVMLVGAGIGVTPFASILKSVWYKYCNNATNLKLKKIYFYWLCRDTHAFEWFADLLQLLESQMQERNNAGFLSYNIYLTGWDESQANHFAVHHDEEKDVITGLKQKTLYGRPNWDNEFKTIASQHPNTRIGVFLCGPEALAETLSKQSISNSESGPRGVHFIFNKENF
Active and inactive are the calls of the source.

Req: // Input: `COc1ccc(C(=O)Nc2cccc(CN3C(=O)[C@]4(O[C@H](CCn5cc([C@H](O)c6ccccc6)nn5)[C@@H]([Si](C)(C)c5ccc(OC)cc5)[C@@H]4C)c4ccccc43)c2)cc1` . Output its z-score only.
Resp: -0.498 (inactive)

Req: Using known records, supply z-score for Cc1ccc(C(C)CC(O)C2C=CC3C(=O)N(c4ccccc4)C(=O)C3N2Nc2ccc(C#N)cc2)o1 (centres undefined)
Resp: -2.43 (inactive)

Req: Report z-score, nothing else, for this compound: `COCCOC(=O)N1C(=O)[C@@]2(c3cc(C#CCC(C(=O)OC)C(=O)OC)ccc31)[C@H](c1ccc(OCCO)cc1)N1[C@H](c3ccccc3)[C@H](c3ccccc3)OC(=O)[C@H]1[C@@H]2C(=O)Nc1nc2ccccc2s1`
Resp: 0.892 (inactive)

Req: Indicate the recorded z-score value for this compound: COc1cc2c(cc1O)C(c1cccs1)N(Cc1sc3ccccc3c1Cl)CC2 (centres undefined)
Resp: -3.92 (inactive)

Req: Please look at this compound and report its z-score: `COCCOC(=O)N1C(=O)[C@@]2(c3cc(C#CCNC(N)=O)ccc31)[C@H](c1ccc(OCCO)cc1)N1[C@H](c3ccccc3)[C@H](c3ccccc3)OC(=O)[C@H]1[C@@H]2C(N)=O`
Resp: 1.84 (inactive)

Req: Tell me its z-score given `COCCOC(=O)N1C(=O)[C@@]2(c3cc(C#CCC(C(=O)OC)C(=O)OC)ccc31)[C@H](c1ccc(O)cc1)N1[C@H](c3ccccc3)[C@H](c3ccccc3)OC(=O)[C@H]1[C@@H]2C(=O)NC[C@H](O)c1ccccc1` as the entry.
Resp: 1.72 (inactive)

Req: Let me know recorded z-score for COc1cc(NN2C(C(O)C3CCCCC3)C=CC3C(=O)N(C)C(=O)C32)cc(OC)c1OC (centres undefined) , thanks.
Resp: -0.904 (inactive)

Req: Recall and state the measured z-score for `NCCCCCNC(=O)[C@H]1C[C@H]2C(=O)N[C@@H](Cc3ccccc3)C(=O)N2[C@H]1c1ccc(O)cc1` .
Resp: 0.354 (inactive)

Req: Return z-score (reported value) for this compound: `COC(=O)[C@@]1(Cc2ccc(F)cc2)[C@H]2c3cc(C(=O)N(C)C)n(Cc4ccc(O)c(OC)c4)c3C[C@H]2CN1C(=O)c1ccccc1`
Resp: -2.68 (inactive)

Req: Supply reported z-score belonging to this compound: `COCC1=C2[C@@H](CCc3ccccc3)OB(O)C[C@@H]2[C@@H]2C(=O)N(C)C(=O)[C@@H]2C1`
Resp: -0.116 (inactive)

Req: Specify measured z-score for `Cc1cccc([C@H]2C[C@H]3C(I)=C[C@@H]2C(=O)[C@]32CO2)c1` .
Resp: -0.942 (inactive)

Req: Return reported z-score. Input compound: CC=CC(O)C1C=CC2C(=O)NC(=O)C2N1Nc1ccccn1 (centres undefined)
Resp: -1.39 (inactive)

Req: Return value of z-score for input `CC(C)C[C@@H]1NC(=O)[C@H]2C[C@@H](C(=O)NCCCCCN)[C@@H](c3cccc(OCCO)c3)N2C1=O` , no commentary.
Resp: 1.33 (inactive)

Req: Indicate its recorded z-score; the compound in question is `[N-]=[N+]=Nc1ccccc1[C@@H]1OC(c2ccc(OCCCO)cc2)=N[C@]1(Cc1ccccc1)C(=O)NCc1ccccc1`
Resp: -2.11 (inactive)
